Taken from ChEMBL document CHEMBL1130163.

- EXPERIMENTAL_TARGET: Lanosterol synthase (Rattus norvegicus)
- Sequence (P48450 whole entry): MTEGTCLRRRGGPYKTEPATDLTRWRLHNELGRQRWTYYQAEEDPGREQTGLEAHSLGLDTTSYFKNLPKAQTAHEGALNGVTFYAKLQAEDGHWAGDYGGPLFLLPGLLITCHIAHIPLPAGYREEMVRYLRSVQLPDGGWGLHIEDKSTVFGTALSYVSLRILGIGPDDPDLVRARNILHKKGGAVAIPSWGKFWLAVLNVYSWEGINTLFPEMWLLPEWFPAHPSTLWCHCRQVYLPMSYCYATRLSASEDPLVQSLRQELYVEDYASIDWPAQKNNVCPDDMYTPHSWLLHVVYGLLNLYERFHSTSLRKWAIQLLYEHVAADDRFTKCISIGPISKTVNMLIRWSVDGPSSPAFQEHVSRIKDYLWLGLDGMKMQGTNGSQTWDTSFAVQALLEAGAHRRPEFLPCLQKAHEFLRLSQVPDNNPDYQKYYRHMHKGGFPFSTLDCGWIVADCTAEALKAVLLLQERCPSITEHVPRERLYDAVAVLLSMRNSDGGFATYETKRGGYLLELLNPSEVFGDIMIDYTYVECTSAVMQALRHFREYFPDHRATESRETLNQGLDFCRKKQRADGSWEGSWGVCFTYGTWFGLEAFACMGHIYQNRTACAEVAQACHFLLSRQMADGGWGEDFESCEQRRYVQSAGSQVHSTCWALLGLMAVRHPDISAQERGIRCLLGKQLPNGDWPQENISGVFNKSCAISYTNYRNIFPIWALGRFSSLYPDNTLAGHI
PROPERTY_MEASURED: IC50

molecule="CC(C)=CCCC1(C)OC1CC/C(C)=C/CC/C=C(\\C)CCCC(C)CCC1OC1C (stereo unspecified)" meas_value="110 nM"
